Experiment: Compound (30 mM) was tested in vitro for inhibitory potency against Fas-associated phosphatase-1 binding from HFAP-10cDNA subcloned into the bluescript vector pSK-II(Stratagene)
Details: in the assay text read “30 µM” for “30 mM”
Non-standard residues stand in square brackets, D forms with d. Residues, ends and D or L forms follow the SMILES beside them. Chg = N[C@H](C(=O)O)C1CCCCC1; Phg = N[C@H](C(=O)O)c1ccccc1; Tle = CC(C)(C)[C@H](N)C(=O)O; Nva = CCC[C@H](N)C(=O)O; Abu = CC[C@H](N)C(=O)O
Overview of recorded inhibition for various molecules
// return numeric value only (unit: %, not printed)

Recorded results for 8 molecules are shown here.
{"molecule": "CC(=O)N[C@@H](CO)C(=O)NCCC(=O)N[C@H](C(=O)O)C(C)C", "units text": "%", "numeric value": 13.6}
{"molecule": "CC(=O)N[C@@H](CO)C(=O)N[C@@H](CC(C)C)[C@@H](O)C(=O)N[C@H](C(=O)O)C(C)C", "units text": "%", "numeric value": 4.9}
{"molecule": "CC(=O)N[C@@H](CO)C(=O)N[C@@H](CC(C)C)C(=O)N[C@H](C(=O)O)C(C)C", "units text": "%", "numeric value": 31.1}
{"molecule": "CC(=O)N[C@@H](CO)C(=O)N[C@@H](Cc1ccc(Oc2ccc(OC(C)=O)cc2)cc1)C(=O)N[C@H](C(=O)O)C(C)C", "units text": "%", "numeric value": 46.7}
{"molecule": "CC(=O)N[C@@H](CO)C(=O)N[C@H](C(=O)N[C@H](C(=O)O)C(C)C)c1ccccc1 (Ac-Ser-[Phg]-Val-OH)", "units text": "%", "numeric value": 18.5}
{"molecule": "CC(=O)N[C@@H](CO)C(=O)N[C@H](C(=O)N[C@H](C(=O)O)C(C)C)C1CCCCC1 (Ac-Ser-[Chg]-Val-OH)", "units text": "%", "numeric value": 34.7}
{"molecule": "CC[C@H](NC(=O)[C@H](CO)NC(C)=O)C(=O)N[C@H](C(=O)O)C(C)C (Ac-Ser-[Abu]-Val-OH)", "units text": "%", "numeric value": 21.1}
{"molecule": "CC(=O)N[C@@H](CO)C(=O)N[C@H](C(=O)N[C@H](C(=O)O)C(C)C)C(C)(C)C (Ac-Ser-[Tle]-Val-OH)", "units text": "%", "numeric value": 54.6}

Incoming: Returns the measured inhibition for the input molecule. Input: CCC[C@H](NC(=O)[C@H](CO)NC(C)=O)C(=O)N[C@H](C(=O)O)C(C)C (Ac-Ser-[Nva]-Val-OH)
Outgoing: 6

====

Assay: Compound (100 mM) was tested in vitro for inhibitory potency against Fas-associated phosphatase-1 binding from HFAP-10cDNA subcloned into the bluescript vector pSK-II(Stratagene)
Residues, ends and D or L forms follow the SMILES beside them. *: point of attachment. Bz = O=C(c1ccccc1)*; Bn = c1ccc(C*)cc1
endpoint: inhibition
Number plus unit, in that order.

Recorded results for 3 compounds are shown here.
{"compound": "CC(=O)N[C@@H](CO)C(=O)N[C@@H](CC(C)C)C(=O)N[C@H](C(=O)O)C(C)C", "inhibition": "87.6%"}
{"compound": "CC(=O)N[C@@H](COC(C)=O)C(=O)N[C@@H](CC(C)C)C(=O)N[C@H](C(=O)O)C(C)C (Ac-Ser(Ac)-Leu-Val-OH)", "inhibition": "47.9%"}
{"compound": "CC(=O)N[C@@H](COC(=O)c1ccccc1)C(=O)N[C@@H](CC(C)C)C(=O)N[C@H](C(=O)O)C(C)C (Ac-Ser(Bz)-Leu-Val-OH)", "inhibition": "36.2%"}

# ---- query compound ----
Incoming: Returns the measured inhibition for the input compound. Input: CC(=O)N[C@@H](COCc1ccccc1)C(=O)N[C@@H](CC(C)C)C(=O)N[C@H](C(=O)O)C(C)C (Ac-Ser(Bn)-Leu-Val-OH)
Outgoing: 10.4%

====

Overview of recorded inhibition for various compounds
Test: Compound (50 mM) was tested in vitro for inhibitory potency against Fas-associated phosphatase-1 binding from HFAP-10cDNA subcloned into the bluescript vector pSK-II(Stratagene)
Non-standard residues stand in square brackets, D forms with d. Residues, ends and D or L forms follow the SMILES beside them. Chg = N[C@H](C(=O)O)C1CCCCC1; hSer = N[C@@H](CCO)C(=O)O; Abu = CC[C@H](N)C(=O)O
Number plus unit, in that order.

{"compound": "CC(=O)N1C[C@@H](O)C[C@H]1C(=O)N[C@@H](CC(C)C)C(=O)N[C@H](C(=O)O)C(C)C", "inhibition": "9.6%"}

Incoming: Returns the measured inhibition for the input compound. Input: CC(=O)N[C@@H](CCO)C(=O)N[C@@H](CC(C)C)C(=O)N[C@H](C(=O)O)C(C)C (Ac-[hSer]-Leu-Val-OH)
Outgoing: 13.3%

Incoming: What about this compound? `CC(=O)N[C@@H](CO)C(=O)N[C@@H](CC(C)C)C(=O)N[C@H](C(=O)O)C(C)C`
Outgoing: 44.3%

Incoming: What about this compound? CC(=O)N[C@@H](CO)C(=O)N[C@@H](CC(C)C)C(=O)N[C@H](C(=O)O)C1CCCCC1 (Ac-Ser-Leu-[Chg]-OH)
Outgoing: 7.7%

Incoming: What about this compound? CC[C@H](NC(=O)[C@H](CC(C)C)NC(=O)[C@H](CO)NC(C)=O)C(=O)O (Ac-Ser-Leu-[Abu]-OH)
Outgoing: 18.7%

====

Overview of recorded inhibition for various compounds
Molecular target: UniProtKB Q12923
Sequence (Q12923 whole entry): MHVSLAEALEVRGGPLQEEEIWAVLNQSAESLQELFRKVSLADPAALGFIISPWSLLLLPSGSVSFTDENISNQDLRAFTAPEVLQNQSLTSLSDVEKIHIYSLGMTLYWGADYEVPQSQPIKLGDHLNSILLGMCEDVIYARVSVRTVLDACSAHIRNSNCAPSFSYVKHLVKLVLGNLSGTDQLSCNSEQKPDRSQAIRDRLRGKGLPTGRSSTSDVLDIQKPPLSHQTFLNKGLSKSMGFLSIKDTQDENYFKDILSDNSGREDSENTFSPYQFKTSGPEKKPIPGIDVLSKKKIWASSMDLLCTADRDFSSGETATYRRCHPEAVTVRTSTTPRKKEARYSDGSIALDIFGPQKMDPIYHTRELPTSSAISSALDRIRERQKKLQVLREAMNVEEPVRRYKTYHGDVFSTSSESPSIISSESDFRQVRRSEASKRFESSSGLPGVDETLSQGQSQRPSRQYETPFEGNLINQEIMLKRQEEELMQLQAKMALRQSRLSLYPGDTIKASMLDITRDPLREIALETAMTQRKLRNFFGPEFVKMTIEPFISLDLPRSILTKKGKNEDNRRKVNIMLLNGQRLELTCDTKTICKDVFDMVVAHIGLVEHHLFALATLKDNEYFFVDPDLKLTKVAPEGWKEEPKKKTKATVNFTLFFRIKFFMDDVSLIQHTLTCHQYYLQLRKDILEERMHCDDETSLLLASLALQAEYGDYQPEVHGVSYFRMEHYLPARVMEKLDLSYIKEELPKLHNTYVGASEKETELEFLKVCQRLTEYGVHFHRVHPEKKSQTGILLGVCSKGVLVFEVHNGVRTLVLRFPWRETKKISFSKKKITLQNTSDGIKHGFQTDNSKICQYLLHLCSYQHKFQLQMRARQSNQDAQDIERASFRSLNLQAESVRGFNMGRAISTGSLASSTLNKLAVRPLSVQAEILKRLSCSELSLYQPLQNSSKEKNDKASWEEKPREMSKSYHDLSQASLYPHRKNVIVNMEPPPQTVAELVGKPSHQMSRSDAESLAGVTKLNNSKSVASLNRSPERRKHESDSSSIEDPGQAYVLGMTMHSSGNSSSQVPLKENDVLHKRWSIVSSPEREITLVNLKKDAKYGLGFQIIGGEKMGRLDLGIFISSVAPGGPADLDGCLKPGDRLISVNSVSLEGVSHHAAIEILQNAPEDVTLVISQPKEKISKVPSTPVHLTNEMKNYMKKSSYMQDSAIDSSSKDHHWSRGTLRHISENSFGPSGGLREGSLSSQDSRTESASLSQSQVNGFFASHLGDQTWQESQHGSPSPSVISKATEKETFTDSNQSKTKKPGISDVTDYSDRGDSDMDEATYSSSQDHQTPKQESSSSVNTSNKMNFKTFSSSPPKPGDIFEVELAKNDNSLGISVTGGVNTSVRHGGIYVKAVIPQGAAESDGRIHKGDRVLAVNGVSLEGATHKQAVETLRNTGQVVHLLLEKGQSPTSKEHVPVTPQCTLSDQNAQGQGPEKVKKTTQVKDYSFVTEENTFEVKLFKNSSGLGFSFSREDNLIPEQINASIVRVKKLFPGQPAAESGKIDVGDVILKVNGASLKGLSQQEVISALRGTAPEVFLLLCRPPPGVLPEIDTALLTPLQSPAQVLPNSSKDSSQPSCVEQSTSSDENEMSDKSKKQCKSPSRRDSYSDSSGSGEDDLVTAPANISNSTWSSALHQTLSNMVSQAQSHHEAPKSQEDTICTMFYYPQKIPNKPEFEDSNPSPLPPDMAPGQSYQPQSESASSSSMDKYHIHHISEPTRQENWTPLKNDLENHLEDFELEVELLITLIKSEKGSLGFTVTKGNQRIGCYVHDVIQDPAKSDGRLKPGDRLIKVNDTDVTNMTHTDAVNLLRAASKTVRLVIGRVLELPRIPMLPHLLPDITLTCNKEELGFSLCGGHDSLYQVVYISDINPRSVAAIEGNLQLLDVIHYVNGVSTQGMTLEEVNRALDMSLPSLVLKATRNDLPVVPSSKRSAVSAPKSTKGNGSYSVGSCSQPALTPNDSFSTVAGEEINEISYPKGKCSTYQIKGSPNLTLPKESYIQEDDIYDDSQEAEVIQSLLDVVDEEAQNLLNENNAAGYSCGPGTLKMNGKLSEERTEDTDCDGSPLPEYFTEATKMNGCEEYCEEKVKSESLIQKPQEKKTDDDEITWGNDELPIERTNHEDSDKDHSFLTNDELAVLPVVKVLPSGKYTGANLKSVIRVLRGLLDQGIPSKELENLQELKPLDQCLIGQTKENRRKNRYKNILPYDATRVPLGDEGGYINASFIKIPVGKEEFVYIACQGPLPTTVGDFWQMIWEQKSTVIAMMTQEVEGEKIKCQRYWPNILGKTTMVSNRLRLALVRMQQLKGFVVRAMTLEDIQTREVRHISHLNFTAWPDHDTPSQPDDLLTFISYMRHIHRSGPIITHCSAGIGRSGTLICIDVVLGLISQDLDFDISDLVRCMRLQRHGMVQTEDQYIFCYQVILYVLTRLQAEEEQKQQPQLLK
Test: In vitro inhibition of Fas-associated phosphatase-1 binding from HFAP-10cDNA subcloned into bluescript vector
Parameters: concentration or dose not given beside the values
Conditions: concentration not given here
Non-standard residues stand in square brackets, D forms with d. Residues, ends and D or L forms follow the SMILES beside them. NMeL = CN[C@@H](CC(C)C)C(=O)O; Aib = CC(C)(N)C(=O)O
// return numeric value only (unit: %, not printed)

Recorded results for 3 compounds are shown here.
{"compound": "CC(=O)N[C@@H](CO)C(=O)N(C)[C@@H](CC(C)C)C(=O)N[C@H](C(=O)O)C(C)C (Ac-Ser-[NMeL]-Val-OH)", "numeric value": 33.4}
{"compound": "CC(=O)N[C@H](CO)C(=O)N[C@@H](CC(C)C)C(=O)N[C@H](C(=O)O)C(C)C", "numeric value": 59.2}
{"compound": "CC(=O)N[C@@H](CO)C(=O)N[C@@H](CC(C)C)C(=O)N[C@@H](C(=O)O)C(C)C", "numeric value": -6.8}

# ---- query compound ----
Incoming: Returns the measured inhibition for the input compound. Input: CC(=O)N[C@@H](CO)C(=O)NC(C)(C)C(=O)N[C@H](C(=O)O)C(C)C (Ac-Ser-[Aib]-Val-OH)
Outgoing: -4

====

Assay: Compound (10 mM) was tested in vitro for inhibitory potency against Fas-associated phosphatase-1 binding from HFAP-10cDNA subcloned into the bluescript vector pSK-II(Stratagene)
Conditions: in the assay text read “10 uM” for “10 mM”
Starred links: 1 amine or outer side, 2 acyl side, 3 side chain; linkers in the order of their positions; H or OH if unused. Residues, ends and D or L forms follow the SMILES beside them. *: point of attachment. CO = O=C([*:1])[*:2]; Bz = O=C(c1ccccc1)*; NHPh = c1ccc(N*)cc1
inhibition vs 30%: at or above is 1, below is 0.

{"molecule": "CC(C)C[C@H](NC(=O)[C@H](CO)NC(=O)C1CCCCC1)C(=O)N[C@H](C(=O)O)C(C)C", "group": 0}
{"molecule": "CC(C)C[C@H](NC(=O)[C@H](CO)NC(=O)Nc1ccc(C(=O)[C@@H](N)CCC(=O)O)cc1)C(=O)N[C@H](C(=O)O)C(C)C", "group": 1}
{"molecule": "CC(C)C[C@H](NC(=O)[C@H](CO)NC(=O)Nc1cccc(C(=O)[C@@H](N)CCC(=O)O)c1)C(=O)N[C@H](C(=O)O)C(C)C", "group": 1}

Incoming: Hello, I need to know if `CC(C)C[C@H](NC(=O)[C@H](CO)NC(=O)Nc1ccccc1C(=O)[C@@H](N)CCC(=O)O)C(=O)N[C@H](C(=O)O)C(C)C` has measured inhibition not below 30%. Thanks!
Outgoing: 1

Incoming: What about this molecule? CC(C)C[C@H](NC(=O)[C@H](CO)NC(=O)c1ccccc1)C(=O)N[C@H](C(=O)O)C(C)C (Bz-Ser-Leu-Val-OH)
Outgoing: 0

Incoming: What about this molecule? CC(C)C[C@H](NC(=O)[C@H](CO)NC(=O)Nc1ccccc1)C(=O)N[C@H](C(=O)O)C(C)C ({NHPh-CO}-Ser-Leu-Val-OH)
Outgoing: 1
